Consider the following compounds and their measured inhibition readings.
# MEASUREMENT TARGET: Pantothenate synthetase (Mycobacterium tuberculosis (strain ATCC 25618 / H37Rv))
# ASSAY NAME: Coupled enzyme confirmation of inhibitors against recombinant Mtb PanC (AID 375);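 note: 0% = full reaction with vehicle and 100% = no enzyme background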
# DETAILS: coupled enzyme assay; at 10 µM, stronger effect = higher value
MEASURED PARAMETER: inhibition (%)

compound=CCOc1ccccc1-n1nnnc1SCC(=O)Nc1cc2oc3ccccc3c2cc1OC readout_unit=% measured=0
compound=COc1ccc(C(=O)NCC(=O)NC2=NCCS2)cc1 readout_unit=% measured=0
compound=CCCCOc1ccc(CC(=O)NO)cc1 readout_unit=% measured=9
compound=CCCOC(=O)CSc1nc(N)c(C#N)c(CC)c1C#N readout_unit=% measured=8
compound="CCOc1cc(C(=O)NCC2CCCO2)cc(OCC)c1OCC (stereo not drawn)" readout_unit=% measured=3
compound=Nc1ccc2cn[nH]c2c1 readout_unit=% measured=0
compound=CC(=O)OCC1=C(C(=O)O)N2C(=O)[C@@H](NC(=O)Cc3cccs3)[C@H]2SC1 readout_unit=% measured=0
compound=CC(=O)Nc1ccc(Cc2ccncc2)cc1 readout_unit=% measured=0

Values were extracted from PubChem BioAssay.
